tested on: HOP-92 NSCLC; assay: NCI tumour cell line growth inhibition, 48 h
Where a SMILES comes first, the peptide text is derived from it. The star is where a group is joined. Boc = CC(C)(C)OC(=O)*; OSu = O=C1CCC(=O)N1O*
ASSAY READOUT: TGI

Which measured TGI value corresponds to NC(CCCC(N)P(=O)(O)c1ccccc1)P(=O)(O)c1ccccc1 (configuration not stated) ? > 261 µM

Here is the next compound: `N[C@H](C(=O)O)[C@H]1ON=C(Cl)[C@@H]1O` 269 µM

Here is the next compound: `CC(=O)O[C@H]1CC[C@@]2(C)C(=CC[C@H]3[C@@H]4CC[C@H](c5cc(C(F)(F)F)n(C(C)=O)n5)[C@@]4(C)CC[C@@H]32)C1` 6.43 µM

Here is the next compound: `O=C(/N=C/c1c(O)c2ccccc2oc1=O)Nc1ccccc1` > 100 µM

Here is the next compound: `COC(=O)[C@@H](C)C[C@H](Cc1ccccc1)NC(=O)c1csc(CC[C@H](C(C)C)N(C)C(=O)[C@@H](NC(=O)[C@H]2CCCCN2C)C(C)C)n1` > 26.9 µM

Here is the next compound: `O=C(c1ccccc1)N1CCN(C(=S)N(C(=O)c2ccccc2)c2ccccc2)C1=S` 20 µM

Here is the next compound: `Cc1cc(S(=O)(=O)Nc2nc3cscc3c(=O)n2Cc2ccccc2)c(S)cc1Cl` > 100 µM

Here is the next compound: `CCCC(=O)NC1=C(Cl)C(=O)c2ccccc2C1=O` 3.22 µM

Here is the next compound: `Cc1ccc(SC(CCC(Sc2ccc(C)cc2)Sc2ccc(C)cc2)Sc2ccc(C)cc2)cc1` > 100 µM

Here is the next compound: `C[C@H](CCC(=O)NCCS(=O)(=O)O)[C@H]1CC[C@H]2[C@@H]3CC[C@@H]4C[C@H](O)CC[C@]4(C)[C@H]3CC[C@]12C` > 100 µM

Here is the next compound: CC(NC(=O)C(C)NC(=O)C(N)CCP(C)(=O)O)C(=O)O (configuration not stated) > 100 µM

Here is the next compound: `OCc1ccc(-c2ccc(-c3ccc(CO)o3)[se]2)o1` > 100 µM

Here is the next compound: `O=C(O)c1cc2ccccc2c(N=Nc2ccc(S(=O)(=O)Nc3nccs3)cc2)c1O` > 100 µM

Here is the next compound: `CN(C)CC(C)(C)C(=O)/C=C/c1ccc(/C=C/C(=O)C(C)(C)CN(C)C)cc1` 2.22 µM

Here is the next compound: `CCN(Cc1cccc(F)c1)c1ccc(CO)c(Cl)c1` 20.8 µM

Here is the next compound: `O=S(=O)(Nc1ccccc1Cl)c1ccc(-c2cnc(C3CC3)o2)cc1` 7.28 µM

Here is the next compound: OC(c1cc2ccccc2o1)c1cc2ccccc2s1 (configuration not stated) > 10 µM

Here is the next compound: `COc1ccc2c(CCN)c(C(=O)O)[nH]c2c1` > 100 µM

Here is the next compound: `CCCNNC(=O)/C=C/c1ccc(CNCCc2c(C)[nH]c3ccccc23)cc1` 0.0744 µM

Here is the next compound: COC(=O)/C=C1/CCC(C(=O)OC)N1 (configuration not stated) > 100 µM

Here is the next compound: `O=C(/C=C/c1ccc(O)cc1)c1ccc2c(c1)OCO2` 58.8 µM

Here is the next compound: CC(NC(=O)C(NC(=O)OC(C)(C)C)C(C)C)C(=O)NCC(=O)ON1C(=O)CCC1=O (stereo not drawn) (Boc-Val-Ala-Gly-OSu; configuration not given here) > 100 µM

Here is the next compound: `Cc1[nH]c2c(c1C)S(=O)(=O)c1cc3ccccc3nc1N2` > 100 µM

Here is the next compound: `O=C1c2ccccc2C(Br)(Br)c2ccccc21` > 100 µM

Here is the next compound: CCCN(CCCC(NC(C)=O)C(=O)NCc1ccccc1)C(=O)N(CCCl)N=O (configuration not stated) 46.6 µM

Here is the next compound: O=C(CC(c1ccccc1)c1c(O)c2ccccc2oc1=O)c1ccccc1 (configuration not stated) > 86.5 µM

Here is the next compound: `COc1cc(-c2cc3ncccc3c3nc(N)c4cccnc4c23)cc(OC)c1OC` > 100 µM

Here is the next compound: `CCCSc1ccc2[nH]c(N3C(=O)/C(=C/c4ccco4)N=C3c3ccccc3)cc2c1` > 50 µM

Here is the next compound: `CC(=O)[O][Ga]([Cl])[O]C(C)=O` > 100 µM

Here is the next compound: `CC[C@]12C=CCN3CC[C@@]4(c5cc(Br)c(OC)cc5N(C)[C@H]4[C@@](O)(C(=O)NN)[C@@H]1O)[C@@H]32` > 100 µM

Here is the next compound: `C=C1C(=O)O[C@@H]2C[C@@H](C)[C@@H]3C=CC(=O)[C@@]3(C)[C@@H](OC(=O)CC(=O)O[C@H]3[C@@H]4C(=C)C(=O)O[C@@H]4C[C@@H](C)[C@@H]4C=CC(=O)[C@]43C)[C@H]12` 0.0746 µM

Here is the next compound: CCOC(=O)C1N(S(=O)(=O)c2ccc(C)cc2)CCC12c1ccccc1N(C(C)=O)C2c1ccc(OC)c(OC)c1 (configuration not stated) > 100 µM

Here is the next compound: `Cn1c(=O)c(C(=O)Nc2nc(C34CC5CC(CC(C5)C3)C4)cs2)c(O)c2ccccc21` 65.9 µM

Here is the next compound: `N#CCc1n[nH]c(Cc2ccccc2)n1` > 100 µM

Here is the next compound: `CC(C)OP(=O)(OC(C)C)/C(I)=N/Nc1ccc([N+](=O)[O-])cc1` > 100 µM

Here is the next compound: C=C(C)C(=O)O[C@H]1C[C@@]23O[C@@H]2CCC(=C[C@H]2OC(=O)C(=C)[C@H]12)COC3O (some centres not stated) 53.6 µM

Here is the next compound: `[Cl-].[O-]/N=C(\c1ccccc1)c1ccccn1.[O-]/N=C(\c1ccccc1)c1ccccn1.[O-]/N=C(\c1ccccc1)c1ccccn1.[Sm+3]` 87.8 µM

====

tested on: MDA-N; assay: NCI tumour cell line growth inhibition, 48 h
Where a SMILES comes first, the peptide text is derived from it. The star is where a group is joined. Boc = CC(C)(C)OC(=O)*; OSu = O=C1CCC(=O)N1O*
What TGI was measured for each of the following?

Which measured TGI value corresponds to `CC1=Nc2nc(Cl)cn2C(=O)C1(Cl)Cl` ? > 10 µM

Here is the next molecule: `CC[C@H](O)[C@H](C)C=C1SCCCS1` > 100 µM

Here is the next molecule: CCCCC(=O)NS(=NC(=O)c1ccccc1)C(Cl)(Cl)Cl (configuration not stated) > 100 µM

Here is the next molecule: CCC12CCCN(Cc3ccccc3)C1c1c([nH]c3ccccc13)C(C(=O)OC)C2 (configuration not stated) > 10 µM

Here is the next molecule: `Cc1ccc(N=N/C(=N\NC(=O)c2ccc(C)cc2)c2ccc(N(CCC#N)CCC#N)cc2C)cc1` > 100 µM

Here is the next molecule: `CC(=O)OCCCOCn1c(Cc2ccccc2)c(C)c(=O)[nH]c1=O` > 100 µM

Here is the next molecule: `O=C1NC(SSC2=NNC3(C(=O)N2)c2ccccc2-c2ccccc23)=NNC12c1ccccc1-c1ccccc12` > 10 µM

Here is the next molecule: `N/C(=N\S(=O)(=O)c1ccc(S(=O)(=O)c2ccccc2)s1)Nc1ccc(Cl)cc1` 39.1 µM

Here is the next molecule: `CN(CCn1cnc2c1c(=O)n(C)c(=O)n2C)C1CCCCC1` > 100 µM

Here is the next molecule: CCOC(=O)C1=CNC(C(=O)OCC)C1c1cccn1-c1ccc(Cl)cc1[N+](=O)[O-] (configuration not stated) 54.8 µM

Here is the next molecule: `CC(C)CCC(=O)c1ccoc1` > 100 µM

Here is the next molecule: O=C1CC2(c3ccccc3)ON=C(c3ccccc3)N2c2ccccc2N1 (configuration not stated) > 100 µM

Here is the next molecule: `Cc1ccsc1/C=N/Nc1nc2ccccc2s1` > 100 µM

Here is the next molecule: COC(=O)C1C/C(=C/N(C)C)C(=S)N1 (configuration not stated) > 100 µM

Here is the next molecule: CC(C(=O)c1ccccc1)C(c1ccccc1)N1CCOCC1 (configuration not stated) > 100 µM

Here is the next molecule: CC(NC(=O)C(NC(=O)OC(C)(C)C)C(C)C)C(=O)NCC(=O)ON1C(=O)CCC1=O (stereo not drawn) (Boc-Val-Ala-Gly-OSu; configuration not given here) > 100 µM

Here is the next molecule: `O=C(c1ccccc1)N1CCN(C(=S)N(C(=O)c2ccccc2)c2ccccc2)C1=S` 17.1 µM

Here is the next molecule: `BrCCCCCOc1ccc(-c2c3ccccc3c(-c3ccc(OCCCCCBr)cc3)c3ccccc23)cc1` > 100 µM

Here is the next molecule: `COC(=O)CCC(=O)NC1=C(Nc2ccc(OC)cc2)C(=O)c2ccccc2C1=O` 3.44 µM

Here is the next molecule: `COC(=O)NCCc1[nH]nc2c1C(=O)C=C(N1CCOCC1)C2=O` > 100 µM

Here is the next molecule: O=C1CCC2(CC1CC(Sc1ccccc1)Sc1ccccc1)OCCO2 (configuration not stated) > 100 µM

Here is the next molecule: `Oc1[nH]c2ccccc2c1N=Nc1ccccn1` > 100 µM

Here is the next molecule: `COc1ccc2c(CCN)c(C(=O)O)[nH]c2c1` > 100 µM

Here is the next molecule: COC(=O)[C@]1(c2cc3ccccc3n2S(=O)(=O)c2ccccc2)CC2CN(C(C)=O)C1CC2=O (some centres not stated) 9.32 µM

Here is the next molecule: CCCCc1ccc(Nc2nc3c(ncn3C3CC(O)C(CN=[N+]=[N-])O3)c(=O)[nH]2)cc1 (configuration not stated) > 100 µM

Here is the next molecule: `FC(F)(F)c1nc2nc(Cl)c(Cl)nc2n1CCCN1CCOCC1` > 100 µM

Here is the next molecule: `COC(=O)CCC(=O)NC1=C(NCc2ccccc2)C(=O)c2ccccc2C1=O` 29.6 µM
